Entry source: patent US20090255440A1

Assay Text: LLNA test for skin sensitization (OECD Guideline 429)
Format: in vivo
Experimental Parameters: OECD Guideline 429, suitable vehicle, for example acetone:olive oil (4+1)
Measured Quantity: skin sensitization (LLNA)

O=c1c2ccccc2c2ccc3sc4ccccc4c4ccc1c2c34 [Solvent Orange 63 from Sample B, C.I. Solvent Orange 63]	not skin sensitizers
O=c1c2ccccc2c2ccc3sc4ccccc4c4ccc1c2c34 [Solvent Orange 63 from Sample C, C.I. Solvent Orange 63]	skin sensitizers
O=c1c2ccccc2c2ccc3sc4ccccc4c4ccc1c2c34 [Solvent Orange 63 from Sample D, C.I. Solvent Orange 63]	skin sensitizers
O=c1c2ccccc2c2ccc3sc4ccccc4c4ccc1c2c34 [Solvent Orange 63 from Sample A, C.I. Solvent Orange 63]	not skin sensitizers
